test system: T98G brain cancer cells; assay: MTT cell growth inhibition assay, T98G; format: cell-based, human; conditions: read-out: IC50 values, T98G; T98G brain cancer cells, MTT, 24 h treatment
MEASUREMENT_TYPE: pIC50
// field semantics: pIC50 = negative decimal log of concentration (mol/L)

Name the value of pIC50 reported for N.N.[Cl][Pt][Cl] [cisplatin, reference compound] when tested on T98G brain cancer cells.
4.16
